Assay: Pharmacokinetics in dogs
Type: in vivo
Conditions: dog, blood, po, 10 mpk, or, DMSO, results normalized to 10 mpk, read-out: Cmax
Description: The pharmacokinetic properties of some compounds of formula (I) were tested on rats and dogs. The compounds were evaluated in Whistar rats, source Iffa Credo, weighing approximately 350 g. Before dosing the animals were fasted overnight (approximately 12 h fasting period). The compounds were dissolved in DMSO or PEG 400. […] The amount of the compound in the biological sample was determined using LC-MS. […]
PARAMETER: Cmax
Write the numeric value and follow it with the unit.

What value of measured Cmax is listed for "CNc1nc2ccc(S(=O)(=O)N(CC(C)C)C[C@@H](O)[C@H](Cc3ccccc3)NC(=O)OCc3cncs3)cc2s1" ?
15 ng/mL

* * *

Assign fold resistance Strain C to each entry below.
test system: mutant HIV strain C; assay: microbe, parasite or virus in culture; type: cell-based; conditions: FR=EC50 (mutant strain)/EC50 (HIV-1 strain LAI)
The answer should be a number; do not append a unit.

What value of measured fold resistance Strain C is listed for Cc1cc(CN)cc(C)c1OCC(=O)N[C@@H](Cc1ccccc1)[C@H](O)CN(CC(C)C)S(=O)(=O)c1ccc2nc(N)sc2c1 [Compound 17] ?
1.7

What value of measured fold resistance Strain C is listed for Cc1c(N)cccc1C(=O)N[C@@H](Cc1ccccc1)[C@H](O)CN(CC(C)C)S(=O)(=O)c1ccc2nc(N)sc2c1 [Compound 10] ?
1.7

What value of measured fold resistance Strain C is listed for CNc1nc2ccc(S(=O)(=O)N(CC(C)C)C[C@@H](O)[C@H](Cc3ccccc3)NC(=O)OCc3cnco3)cc2s1 [Compound 28] ?
2.5

* * *

test: Toxicity on mock-infected cells (MTT); format: cell-based; details: human
Structures can show the parent of a compound that is named as a salt.
CC50 at 5 days under 70 µM gets Met, anything at or over 70 µM gets Not met.

Below 70 µM on CC50 at 5 days? Entry Cc1c(N)cccc1C(=O)N[C@@H](Cc1ccccc1)[C@H](O)CN(CC(C)C)S(=O)(=O)c1ccc2nc(N)sc2c1 [Compound 10]
Not met

Below 70 µM on CC50 at 5 days? Entry CNc1nc2ccc(S(=O)(=O)N(CC(C)C)C[C@@H](O)[C@H](Cc3ccccc3)NC(=O)OCc3cncs3)cc2s1 [Compound 18]
Not met

Below 70 µM on CC50 at 5 days? Entry CNc1nc2ccc(S(=O)(=O)N(CC(C)C)C[C@@H](O)[C@H](Cc3ccccc3)NC(=O)c3ccc(Br)cc3C)cc2s1 [Compound 27]
Not met

Below 70 µM on CC50 at 5 days? Entry CC(C)CN(C[C@@H](O)[C@H](Cc1ccccc1)NC(=O)OC1CCOC1)S(=O)(=O)c1ccc2nc(N)sc2c1 (stereo partly shown) [Compound 12]
Not met

Below 70 µM on CC50 at 5 days? Entry CC(C)CN(C[C@@H](O)[C@H](Cc1ccccc1)NC(=O)OCc1cncs1)S(=O)(=O)c1ccc2nc(N)sc2c1 [Compound 3]
Not met

Below 70 µM on CC50 at 5 days? Entry CNc1nc2ccc(S(=O)(=O)N(CC(C)C)C[C@@H](O)[C@H](Cc3ccccc3)NC(=O)COc3c(C)cccc3C)cc2s1 [Compound 15]
Not met

Below 70 µM on CC50 at 5 days? Entry Cc1c(F)cccc1C(=O)N[C@@H](Cc1ccccc1)[C@H](O)CN(CC(C)C)S(=O)(=O)c1ccc2nc(N)sc2c1 [Compound 16]
Met

Below 70 µM on CC50 at 5 days? Entry Cc1c(O)cccc1C(=O)N[C@@H](Cc1ccccc1)[C@H](O)CN(CC(C)C)S(=O)(=O)c1ccc2nc(N)sc2c1 [Compound 11]
Met

Below 70 µM on CC50 at 5 days? Entry CC(C)CN(C[C@@H](O)[C@H](Cc1ccccc1)NC(=O)OCc1cccnc1)S(=O)(=O)c1ccc2nc(N)sc2c1 [Compound 9]
Met

Below 70 µM on CC50 at 5 days? Entry Cc1ccccc1C(=O)N[C@@H](Cc1ccccc1)[C@H](O)CN(CC(C)C)S(=O)(=O)c1ccc2nc(N)sc2c1 [Compound 14]
Met

Below 70 µM on CC50 at 5 days? Entry CNc1nc2ccc(S(=O)(=O)N(CC(C)C)C[C@@H](O)[C@H](Cc3ccccc3)NC(=O)c3cccc(N)c3C)cc2s1 [Compound 20, trifluoroacetate]
Not met
